Biological target: Orexin/Hypocretin receptor type 1 (Homo sapiens)
Sequence (O43613 whole entry): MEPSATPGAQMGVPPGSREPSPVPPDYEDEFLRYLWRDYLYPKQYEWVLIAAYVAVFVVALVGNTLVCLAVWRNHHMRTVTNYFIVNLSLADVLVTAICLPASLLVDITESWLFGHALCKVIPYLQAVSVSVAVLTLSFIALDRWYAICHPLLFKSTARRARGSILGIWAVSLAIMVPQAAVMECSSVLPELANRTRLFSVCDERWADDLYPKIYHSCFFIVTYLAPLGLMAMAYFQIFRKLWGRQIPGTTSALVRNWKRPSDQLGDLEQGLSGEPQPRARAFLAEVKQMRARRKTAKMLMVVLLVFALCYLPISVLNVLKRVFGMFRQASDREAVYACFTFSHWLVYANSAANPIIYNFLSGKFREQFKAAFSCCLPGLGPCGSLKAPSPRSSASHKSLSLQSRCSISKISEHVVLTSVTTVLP
pIC50: −log10 of the molar value.
property.label: pIC50

Tell me reported pIC50 for "Cc1cc(C)nc(N2C[C@H]3CN(C(=O)c4c(-c5ccsc5)cn5ccccc45)C[C@H]3C2)n1" , tested with Orexin/Hypocretin receptor type 1 (Homo sapiens).
< 6.00
